Source listed as patent US20170320870A1.

tgt: LRRK2 wild type (recombinant human, catalytic domain amino acids 970-2527, GST-tagged) (Homo sapiens)
Construct: The wild type used was recombinant human, catalytic domain (amino acids 970-2527) GST-tagged, expressed in insect cells; GST
Sequence (Q5S007 970-2527): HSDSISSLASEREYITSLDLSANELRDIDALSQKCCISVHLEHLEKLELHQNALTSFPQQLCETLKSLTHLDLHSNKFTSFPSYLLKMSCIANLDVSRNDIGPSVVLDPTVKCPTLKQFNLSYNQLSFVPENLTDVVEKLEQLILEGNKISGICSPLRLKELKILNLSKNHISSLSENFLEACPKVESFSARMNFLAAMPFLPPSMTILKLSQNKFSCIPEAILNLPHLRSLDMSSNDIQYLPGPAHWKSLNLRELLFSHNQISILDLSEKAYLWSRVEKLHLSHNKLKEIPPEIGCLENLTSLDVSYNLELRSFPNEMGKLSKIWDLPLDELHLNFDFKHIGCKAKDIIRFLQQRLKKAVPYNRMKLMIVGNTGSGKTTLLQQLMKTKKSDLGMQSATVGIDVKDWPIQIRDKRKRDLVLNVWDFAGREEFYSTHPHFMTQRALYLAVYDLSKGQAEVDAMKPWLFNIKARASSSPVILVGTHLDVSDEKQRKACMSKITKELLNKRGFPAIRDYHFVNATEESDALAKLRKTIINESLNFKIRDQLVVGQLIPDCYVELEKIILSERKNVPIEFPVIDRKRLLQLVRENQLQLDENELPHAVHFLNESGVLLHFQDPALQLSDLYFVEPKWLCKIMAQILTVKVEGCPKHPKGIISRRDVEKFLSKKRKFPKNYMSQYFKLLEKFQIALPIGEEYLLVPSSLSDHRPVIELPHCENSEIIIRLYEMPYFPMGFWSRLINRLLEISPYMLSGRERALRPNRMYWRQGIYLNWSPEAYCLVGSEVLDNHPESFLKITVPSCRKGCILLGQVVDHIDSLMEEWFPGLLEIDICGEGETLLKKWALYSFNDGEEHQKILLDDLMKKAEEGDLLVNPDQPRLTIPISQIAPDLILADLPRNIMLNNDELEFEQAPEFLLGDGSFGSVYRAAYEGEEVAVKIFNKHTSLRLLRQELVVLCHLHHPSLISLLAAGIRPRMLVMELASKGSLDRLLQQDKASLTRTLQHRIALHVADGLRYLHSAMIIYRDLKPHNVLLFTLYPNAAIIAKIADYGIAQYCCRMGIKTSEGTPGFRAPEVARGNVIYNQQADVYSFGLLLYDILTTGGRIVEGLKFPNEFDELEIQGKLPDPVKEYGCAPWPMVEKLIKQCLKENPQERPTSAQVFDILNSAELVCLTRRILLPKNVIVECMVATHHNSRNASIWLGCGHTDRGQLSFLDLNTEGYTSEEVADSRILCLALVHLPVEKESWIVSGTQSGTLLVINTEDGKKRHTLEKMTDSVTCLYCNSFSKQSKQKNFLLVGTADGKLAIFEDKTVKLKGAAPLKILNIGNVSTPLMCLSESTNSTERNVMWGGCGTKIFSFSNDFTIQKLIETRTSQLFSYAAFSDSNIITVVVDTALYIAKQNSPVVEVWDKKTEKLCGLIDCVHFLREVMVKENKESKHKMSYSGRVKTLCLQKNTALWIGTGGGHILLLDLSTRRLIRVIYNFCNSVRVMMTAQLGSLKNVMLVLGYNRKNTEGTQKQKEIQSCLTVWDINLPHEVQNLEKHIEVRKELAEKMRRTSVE
assayMethodText: LRRK2 wild type protein kinase assay ([γ-33P] ATP, peptide substrate […]), IC50
runParameters: LRRK2 (variant not given); read-out: Potency score, LRRK2 IC50
pIC50: −log10 of the molar value.
Entries annotated with measured pIC50

State, in one line, measured pIC50 of Cc1n[nH]c2ccnc(Nc3ccc(N4CCOCC4)nc3)c12
6.00 to 7.00

State, in one line, measured pIC50 of Cc1n[nH]c2ccnc(Cc3ccccc3)c12
5.00 to 6.00

State, in one line, measured pIC50 of Cc1n[nH]c2ccnc(-c3ccccc3)c12
5.00 to 6.00

State, in one line, measured pIC50 of O=C(c1cccc(-c2n[nH]c3ccnc(NC4CCCCC4)c23)c1)N1CCOCC1
5.00 to 6.00

State, in one line, measured pIC50 of c1cc2[nH]nc(-c3cnn(CCN4CCOCC4)c3)c2c(NC2CCCCC2)n1
6.00 to 7.00

State, in one line, measured pIC50 of Cc1n[nH]c2ccnc(NC3CCOCC3)c12
6.00 to 7.00
